Can you tell me pKd for the items I'm about to list?
test target: GDP-bound KRAS wild-type protein (Homo sapiens)
test name: Binding to KRAS by surface plasmon resonance (SPR), Single Cycle Kinetics
condition description: SPR, Single Cycle Kinetics, GDP-bound KRAS wild-type protein; read-out: KRAS KD
In simple prose, pKd is minus the logarithm base ten of a concentration in moles per litre.

I'd like to know its pKd. The compound in question is `CC[C@H](C)[C@@H]1NC(=O)[C@H](CC)N(C)C(=O)C[C@@H](C(=O)N(C)CC)N(C)C(=O)[C@H](C2CCCC2)N(C)C(=O)C2(CC(C)(C)C2)NC(=O)[C@@H]2C[C@H](C)CN2C(=O)[C@H](CCc2ccc(C(F)(F)F)c(OC)c2)NC(=O)CN(C)C(=O)[C@H](Cc2ccc(C)cc2)N2CC/C=C\C[C@@H](C2=O)N(C)C(=O)CN(C)C1=O` 10.06

Repeat with `CCO[C@@H]1C[C@H]2C(=O)NC3(CCC3)C(=O)N(C)[C@@H](C(CC)CC)C(=O)N(C)[C@H](C(=O)N3CCOCC3)CC(=O)N(C)[C@@H](CC(C)C)C(=O)N[C@@H]([C@@H](C)CC)C(=O)N(C)CC(=O)N(C)[C@H]3CCCCN(C3=O)[C@@H](Cc3ccc(C(F)(F)F)cc3)C(=O)N(C)CC(=O)N[C@@H](CCc3cc(F)c(C(F)(F)F)c(F)c3)C(=O)N2C1` 10.08

Repeat with `CCO[C@@H]1C[C@H]2C(=O)NC3(CCC3)C(=O)N(C)[C@@H](C3CCCC3)C(=O)N(C)[C@H](C(=O)N(C)C)CC(=O)N(C)[C@@H](CC)C(=O)N[C@@H]([C@@H](C)CC)C(=O)NCC(=O)N(C)[C@H]3C/C=C\CCN(C3=O)[C@@H](Cc3ccc(C(F)(F)F)cc3)C(=O)N(C)CC(=O)N[C@@H](CCc3cc(F)c(C(F)(F)F)c(F)c3)C(=O)N2C1` 10.11

###

test target: GDP-bound KRAS wild-type protein (Homo sapiens)
test name: Binding to KRAS by surface plasmon resonance (SPR), Single Cycle Kinetics
condition description: SPR Single Cycle Kinetics, GDP-bound KRAS wild-type protein, 1:1 binding model; read-out: KRAS KD
recorded metric: Kd
Please append the unit to your numeric answer.

I'd like to know its Kd. The compound in question is CCO[C@@H]1C[C@H]2C(=O)NC3(CCC3)C(=O)N(C)[C@@H](C3CCCC3)C(=O)N(C)[C@H](C(=O)N3CCOCC3)CC(=O)N(C)[C@@H](CC3CCC3)C(=O)N[C@@H]([C@@H](C)CC)C(=O)N(C)CC(=O)N(C)[C@H]3CCCCN(C3=O)[C@@H](Cc3ccc(C(F)(F)F)cc3)C(=O)N(C)CC(=O)N[C@@H](CCc3cc(F)c(C(F)(F)F)c(F)c3)C(=O)N2C1 [PP0713] 0.033 nM

Repeat with CCO[C@@H]1C[C@H]2C(=O)NC3(CC(C)(C)C3)C(=O)N(C)[C@@H](CC3CCC3)C(=O)N(C)[C@H](C(=O)N(C)C)CC(=O)N(C)[C@@H](COC)C(=O)N[C@@H]([C@@H](C)CC)C(=O)N(C3CC3)CC(=O)N(C)[C@H]3C/C=C\CCN(C3=O)[C@@H](Cc3ccc(C(F)(F)F)cc3)C(=O)N(C)CC(=O)N[C@@H](CCc3ccc(Cl)c(Cl)c3)C(=O)N2C1 [PP2821] 1.8 nM

Repeat with CC[C@H](C)[C@@H]1NC(=O)[C@H](CC(C)C)N(C)C(=O)C[C@@H](C(=O)N(C)C)N(C)C(=O)[C@H](C2CCCC2)N(C)C(=O)C2(CCC2)NC(=O)[C@@H]2CCCN2C(=O)[C@H](CCc2cc(F)c(C(F)(F)F)c(F)c2)NC(=O)CN(C)C(=O)[C@H](Cc2ccc(C(F)(F)F)cc2)N2CCCCC[C@@H](C2=O)N(C)C(=O)CN(C)C1=O [PP0512] 0.37 nM

###

test target: GDP-bound KRAS wild-type protein (Homo sapiens, UniProt P01116)
Sequence (P01116 whole entry): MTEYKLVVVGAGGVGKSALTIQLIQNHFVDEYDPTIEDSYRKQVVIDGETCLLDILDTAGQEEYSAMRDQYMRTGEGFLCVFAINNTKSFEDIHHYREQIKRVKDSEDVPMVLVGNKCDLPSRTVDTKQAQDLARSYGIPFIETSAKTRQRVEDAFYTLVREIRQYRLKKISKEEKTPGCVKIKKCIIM
test name: Binding to KRAS by surface plasmon resonance (SPR), Single Cycle Kinetics
condition description: SPR, Single Cycle Kinetics, GDP-bound KRAS wild-type protein; read-out: KRAS KD
recorded metric: pKd
In simple prose, pKd is minus the logarithm base ten of a concentration in moles per litre.

I'd like to know its pKd. The compound in question is `CCO[C@@H]1C[C@H]2C(=O)NC3(CCC3)C(=O)N(C)[C@@H](C3CCCC3)C(=O)N(C)[C@H](C(=O)N3CCOCC3)CC(=O)N(C)[C@@H](CC(C)C)C(=O)N[C@@H]([C@@H](C)CC)C(=O)N(C)CC(=O)N(C)[C@H]3CCCCCN(C3=O)[C@@H](Cc3ccc4sccc4c3)C(=O)N(C)CC(=O)N[C@@H](CCc3cc(F)c(C(F)(F)F)c(F)c3)C(=O)N2C1` 9.54

Repeat with `CCC[C@H]1C(=O)N[C@@H]([C@@H](C)CC)C(=O)N(C)CC(=O)N(C)[C@H]2C/C=C\CCN(C2=O)[C@@H](Cc2ccc(C)cc2)C(=O)N(C)CC(=O)N[C@@H](CCc2cc(F)c(C(F)(F)F)c(F)c2)C(=O)N2C[C@H](OCC)C[C@H]2C(=O)N(C)C2(CCC2)C(=O)N(C)[C@@H](C2CCCC2)C(=O)N(C)[C@H](C(=O)N(C)C)CC(=O)N1C` 10.64

Repeat with `CCO[C@@H]1C[C@H]2C(=O)NC3(CC(C)(C)C3)C(=O)N(C)[C@@H](C3CCCC3)C(=O)N(C)[C@H](C(=O)N(CC)CC)CC(=O)N(C)[C@@H](CC)C(=O)N[C@@H]([C@@H](C)CC)C(=O)N(C)CC(=O)N(C)[C@H]3C/C=C\CCN(C3=O)[C@@H](Cc3ccc(C)cc3)C(=O)N(C)CC(=O)N[C@@H](CCc3ccc(C(F)(F)F)c(OC)c3)C(=O)N2C1` 9.54

###

Can you tell me IC50 for the items I'm about to list?
System: human lung cancer strain NCI-H441;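 also: cell proliferation inhibition after four days measured by CellTiter-Glo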
test name: cells
condition description: NCI-H441, 96 h, read-out: NCI-H441 IC50 (nM), NCI-H441 cell proliferation, 4 days, CellTiter-Glo
Provide only the numeric value, understood in nM.

I'd like to know its IC50. The compound in question is `CCCOC[C@H]1C(=O)N[C@@H]([C@@H](C)CC)C(=O)N(C)CC(=O)N(C)[C@H]2C/C=C\CCN(C2=O)[C@@H](Cc2ccc(C(F)(F)F)cc2)C(=O)N(C)CC(=O)N[C@@H](CCc2cc(F)c(C(F)(F)F)c(F)c2)C(=O)N2C[C@H](F)C[C@H]2C(=O)NC2(CC(C)(C)C2)C(=O)N(C)[C@@H](C2CCCC2)C(=O)N(C)[C@H](C(=O)N(C)CC)CC(=O)N1C` 3.6

Repeat with `CCO[C@@H]1C[C@H]2C(=O)N(C)C3(CCC3)C(=O)N(C)[C@@H](C3CCCC3)C(=O)N(C)[C@H](C(=O)N(C)C)CC(=O)N(C)[C@@H](CC3CC3)C(=O)N[C@@H]([C@@H](C)CC)C(=O)N3CCC[C@H]3C(=O)N(C)[C@H]3C/C=C\CCN(C3=O)[C@@H](Cc3ccc(C)cc3)C(=O)N(C)CC(=O)N[C@@H](CCc3cc(F)c(C(F)(F)F)c(F)c3)C(=O)N2C1` 5.1

###

test target: GDP-bound KRAS wild-type protein (Homo sapiens, UniProt P01116)
test name: Binding to KRAS by surface plasmon resonance (SPR), Single Cycle Kinetics
condition description: SPR, Single Cycle Kinetics, GDP-bound KRAS wild-type protein; read-out: KRAS KD
recorded metric: pKd
In simple prose, pKd is minus the logarithm base ten of a concentration in moles per litre.

I'd like to know its pKd. The compound in question is `CCO[C@@H]1C[C@H]2C(=O)NC3(CC(C)(C)C3)C(=O)N(C)[C@@H](C(CC)CC)C(=O)N(C)[C@H](C(=O)N(C)C)CC(=O)N(C)[C@H]3CCCC/C=C/c4ccc(cc4)C[C@@H](C(=O)N(C)CC(=O)N[C@@H](CCc4ccc(Cl)c(Cl)c4)C(=O)N2C1)N1CC/C=C\C[C@@H](C1=O)N(C)C(=O)CN(C)C(=O)[C@H]([C@@H](C)CC)NC3=O` 9.89

Repeat with `CC[C@H](C)[C@@H]1NC(=O)[C@H](CC2CC2)N(C)C(=O)C[C@@H](C(=O)N(C)CC)N(C)C(=O)[C@H](C2CCCC2)N(C)C(=O)C2(CCC2)NC(=O)[C@@H]2C[C@@H](C)CN2C(=O)[C@H](CCc2ccc(C(F)(F)F)c(OC)c2)NC(=O)CN(C)C(=O)[C@H](Cc2ccc(C)cc2)N2CC/C=C\C[C@@H](C2=O)N(C)C(=O)CN(C)C1=O` 9.77

Repeat with `CCC(CC)[C@H]1C(=O)N(C)[C@H](C(=O)N(C)C)CC(=O)N(C)[C@@H](COC)C(=O)N[C@@H]([C@@H](C)CC)C(=O)N(C)CC(=O)N(C)[C@H]2C/C=C\CCN(C2=O)[C@@H](CC2CCC(F)(F)CC2)C(=O)N(C)CC(=O)N[C@@H](CCc2ccc(C(F)(F)F)c(OC)c2)C(=O)N2C[C@@H](C)C[C@H]2C(=O)NC2(CC(C)(C)C2)C(=O)N1C` 9.01
